biological target: T1, PSMA Fab (006 PSMA Fab) (biotinylated (site not stated)); experiment: clonal phage ELISA on biotinylated PSMA Fab captured on neutravidin, anti-M13-HRP detection;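 further: crude clonal phage supernatants added to wells preincubated with PSMA antigen in blocking buffer or with blocking buffer alone, brief binding period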
T1 construct: also called Anti-PSMA Fab; anti-PSMA Fab
Where no end group is shown, it is not given here.
READOUT: Phage binding ELISA signal, Anti-PSMA Fab
Reply: number alone, nothing else.

Reference set, count: 4
{"columns": ["BINDER", "VAL"],
 "data": [
  ["QYPVCKPAWMCEGF (cysteine pairing not given here; also: fused to pIII of bacteriophage, not shown: fused to pIII of the bacteriophage) [Phage-3341]", 1.83],
  ["VDALCRPSWMCIGF (cysteine pairing not given here; also: fused to pIII of bacteriophage, not shown: fused to pIII of the bacteriophage) [Phage-3338]", 1.84],
  ["GELKCIPPWMCEGF (cysteine pairing not given here; also: fused to pIII of bacteriophage, not shown: fused to pIII of the bacteriophage) [Phage-3345]", 1.83],
  ["MERLCMPSWMCGGF (cysteine pairing not given here; also: fused to pIII of bacteriophage, not shown: fused to pIII of the bacteriophage) [Phage-3344]", 1.83]
]}

API: the following record is the query input.
IN: Could you share which Phage binding ELISA signal, Anti-PSMA Fab value was measured for LEVLCKPTWMCVGF (cysteine pairing not given here; also: fused to pIII of bacteriophage, not shown: fused to pIII of the bacteriophage) [Phage-3337] ?
OUT: 1.84
